Data credit: patent US20170044104A1

- Test system: Haemonchus contortus
- run description: Haemonchus contortus (HAEMCO) larval mortality assay
- condition summary: 120 h, application rate 20 ppm, after 5 days, read-out: activity (percentage of larval mortality)
The entries below are paired with their reported mortality at 20 ppm.
Reply with just the number (in %).

| compound | test target | mortality at 20 ppm [%] |
| --- | --- | --- |
| O=C(NCCc1ccc(-c2ccc(Cl)nc2)cc1Cl)c1ccccc1C(F)(F)F [Example 1-66] | Haemonchus contortus | 100 |
| O=C(NCCc1ccc(-c2cccnc2)cc1Cl)c1ccccc1C(F)(F)F [Example 1-33] | Haemonchus contortus | 100 |
| O=C(NCCc1ccc(-c2cccnc2Cl)cc1)c1ccccc1C(F)(F)F [Example 1-56] | Haemonchus contortus | 80 |
| O=C(NCC(F)c1ccc(-c2cccnc2Cl)cc1Cl)c1cccnc1C(F)(F)F (stereo not shown) [Example 1-80] | Haemonchus contortus | 100 |
| COc1ccc(-c2ccc(C(F)(F)CNC(=O)c3ccccc3C(F)(F)F)c(C(F)(F)F)c2)cn1 [Example 1-127] | Haemonchus contortus | 100 |

Problem: Tell me the measured mortality at 20 ppm of CC(F)(CNC(=O)c1cccnc1C(F)(F)F)c1ccc(-c2cncc(F)c2)cc1Cl (stereo not shown) [Example 1-98] , please.
Result: 100

Problem: Tell me the measured mortality at 20 ppm of O=C(NCCc1cccc(-c2cncc(F)c2)c1)c1ccccc1C(F)(F)F [Example 1-3] , please.
Result: 90

Problem: Tell me the measured mortality at 20 ppm of Cc1occc1-c1ccc(CCNC(=O)c2ccccc2C(F)(F)F)c(Cl)c1 [Example 1-40] , please.
Result: 100

Problem: Tell me the measured mortality at 20 ppm of O=C(NCC(F)(F)c1ccc(-n2cc(C(F)(F)F)cn2)cc1Cl)c1cccnc1C(F)(F)F [Example 1-89] , please.
Result: 100

Problem: Tell me the measured mortality at 20 ppm of O=C(NCC(F)(F)c1ccc(-c2ccc(F)nc2)cc1C(F)(F)F)c1ccccc1C(F)(F)F [Example 1-128] , please.
Result: 100
